# EXPERIMENT NOTES: Determination of solubility in water (PBS 20 mM, pH 6.8)
# Format: physicochemical
# MEASUREMENT SETUP: PBS buffer, aqueous buffer, thermodynamic from solid; pH 6.8, 20 mM PBS; read-out: Solubility (pH 6.8, g/mL)

SMILES REPRESENTATION	solubility
COc1cc(N2CCN(C)CC2)ccc1Nc1ncc2nc(C(C)C)c(=O)n([C@H]3CCN(C(=O)/C=C/CN(C)C)C3)c2n1	3970 µg/mL
C=CC(=O)N1CC[C@H](n2c(=O)c(C(C)C)nc3cnc(Nc4ccc(N5CCN(C)CC5)cc4OC)nc32)C1	10500 µg/mL
C=CC(=O)N1CC[C@H](n2c(=O)c(C3CCCCC3)nc3cnc(Nc4ccc(N5CCN(C)CC5)cc4OC)nc32)C1	719 µg/mL
C=CC(=O)Nc1cccc(-n2c(=O)cnc3cnc(Nc4cc(C)c(N5CCN(C)CC5)cc4OC)nc32)c1	51.8 µg/mL
